From: ChEMBL document CHEMBL4513216

system: Plasmodium berghei; assay: Screen against P. berghei liver stage (PbLuc), transformed with Luciferase, at 2uM; assay type: functional, HepG2; conditions: tested at 2 uM
In all, about 68,000 compounds went through this assay and about 2,700 (4%) showed an effect of 50% or more. Only a selection was taken, and strong results are over-represented in it overall.
Binary classification by INHIBITION, with 30% as an inclusive lower bound for T; all other cases are F.

>>> df
                                   compound  class_name
0  Nc1cc(CCC2CN(Cc3ccc4c(c3)OCCO4)CCO2)ccn1 (stereo not drawn)           F
1  COC1CCN(C(=O)Cn2ncc(N3CCCCC3)cc2=O)C1 (stereo not drawn)           F
2  COCCN1C[C@@H]2CC[C@H]1CN(Cc1ccc3ccccc3n1)C2           T

hey, is INHIBITION for this one >= 30%? c1ccc2oc(N3CCn4c(nnc4C4CC4)C3)nc2c1
F

Could you verify whether the entry CCc1cnc(N2CC[C@H]3[C@@H]2CCC(=O)N3CC2CCOCC2)nc1 shows INHIBITION of no less than 30%?
F

Hi team, for O=C(c1nc(=O)[nH][nH]1)N1CCCCCC1 , is the recorded INHIBITION at or above 30%?
T

Answer whether INHIBITION of Cc1c(C(=O)NCCC(=O)N2CCOCC2)sc2ccc(F)cc12 is greater than or equal to 30%.
F

Would you say CCn1cc(S(=O)(=O)N2CCC(C3CCCCN(C)C3=O)CC2)c(C)n1 (stereo not drawn) shows INHIBITION at minimum 30%?
F

Could you verify whether the entry Cc1ccc(C(=O)N(C)Cc2nccn2CC(F)(F)F)cn1 shows INHIBITION of no less than 30%?
F

Hi, just wondering whether Nc1cc(CCC2CN(Cc3ccc4cc[nH]c4c3)CCO2)ccn1 (stereo not drawn) shows INHIBITION of 30% or higher.
T

Check the entry Cc1[nH]n(C)c2nc(=O)cc(C(F)(F)C(F)(F)F)c1-2 : does INHIBITION equal or exceed 30%?
F

Determine whether measured INHIBITION meets or exceeds 30% for Cc1ccc(CN2CC[C@H]3CO[C@H](CN4CCN(C)CC4)[C@H]3C2)o1
F

Item CN1C[C@H](O)[C@]2(CCN(Cc3ccc(F)c(F)c3)C2)S1(=O)=O with INHIBITION of 30% or above?
F

Item CNC(=O)[C@@H](c1ccccc1OC)N1CCC[C@H]1C(=O)N1CCC1 with INHIBITION of 30% or above?
F

Does the reported INHIBITION for CCOc1ccc(C(=O)N(C)Cc2nccn2CC(F)(F)F)cc1 fall at or above the 30% mark?
T

Could you verify whether the entry Cc1ccc2nc(CN(C)Cc3ccc(C)o3)cc(=O)n2c1 shows INHIBITION of no less than 30%?
F

Please check the record Cc1ccc(CN2CC[C@H]3CO[C@H](CN(C)C)[C@H]3C2)o1 and state if its INHIBITION is at or above 30%.
F

Hi, just wondering whether CNC(=O)[C@@H](c1ccccc1OC)N1CCC[C@H]1C(=O)N1CC[C@@H](O)C1 shows INHIBITION of 30% or higher.
T

* * *

system: Plasmodium berghei; assay: Screen against P. berghei liver stage (PbLuc), transformed with Luciferase, at 2uM; type: functional, HepG2; details: tested at 2 uM
Screen size: about 68,000 compounds; about 2,700 (4%) showed an effect of 50% or more. This is one part of a sample in which strong results are shown more often than they occur.
Provide the reported INHIBITION of each item.
One number for each entry, in %.

Recorded results for 5 compounds are shown here.
In [3]: df
Out[3]:
                                   compound  reported_measurement
0          CN(C)c1cc(CNC(=O)c2ccccc2Cl)ccn1                 17.19
1              COCCSCC(=O)NCc1ccc(N(C)C)cc1                 47.04
2  CN(C)c1ccc(CCNC(=O)NCc2ccc(N(C)C)nc2)cc1                -18.67
3     CC(C)OCC(=O)N1CCCN(Cc2ccc(C#N)cc2)CC1                  2.08
4  Cn1ccc(C(=O)Nc2cccc(-c3ccc4c(c3)CCO4)n2)cc1=O                -17.18

Please supply INHIBITION for each of the following items, keeping them in order.
1. COCCSCC(=O)NCc1ccnc(N(C)C)c1
2. CCS(=O)(=O)c1ccccc1C(=O)NCc1ccnc(N(C)C)c1
3. CN(C)c1cc(CNC(=O)CC2CCCCC2)ccn1
4. Cc1noc(C)c1CNC1CCN(c2ccccc2OC(F)F)C1 (configuration not stated)
5. CN(C)c1ccc(CNC(=O)NCCc2ccccn2)cn1
6. O=C(c1ccc[nH]1)N1CCCC2(CCN(c3ccsc3)C2=O)C1 (configuration not stated)
7. CCN(C)c1cc(CNC(=O)CNC(=O)CC2CCCCC2)ccn1

1: 50.61; 2: 56.67; 3: 55.33; 4: -15.77; 5: 11.2; 6: 26.92; 7: -15.05

* * *

test system: Plasmodium berghei; experiment: Screen against P. berghei liver stage (PbLuc), transformed with Luciferase, at 2uM; format: functional, HepG2; settings: tested at 2 uM
Screen size: about 68,000 compounds; about 2,700 (4%) showed an effect of 50% or more. This excerpt belongs to a sample that is enriched for strong results.
Record condition met whenever INHIBITION is at 40% or higher; record condition not met when lower.

Reported INHIBITION reaches at least 40% for CCCSc1ncc(-c2nccn2CCO)cn1 ?
condition met

Please check the record CC(C)[C@@H]1CN(C(=O)CN(C)Cc2ccccc2)C[C@H]1C(=O)O and state if its INHIBITION is at or above 40%.
condition not met

Hello, I need to know if Cc1cccc(CN(Cc2ccc(C)o2)C2CC(C)(C)NC(C)(C)C2)n1 has measured INHIBITION not below 40%. Thanks!
condition not met

Determine whether measured INHIBITION meets or exceeds 40% for CCCn1ccnc1-c1nccn1CCC(N)=O
condition met

Reported INHIBITION at or above 40%? Cc1nc(NCc2nonc2C)cc(C(C)Cn2nc(C)c(C)c2C)n1 (configuration not stated)
condition met

Quick check, INHIBITION >= 40%? CC(C)[C@@H]1CN(C(=O)CCc2ccc(F)cc2)C[C@H]1C(=O)O
condition not met

Reported INHIBITION at or above 40%? Cc1noc(CCCC(=O)NC(C)c2ccc(Cl)s2)n1 (configuration not stated)
condition not met

Quick check: does CN(Cc1ccccc1)C1(C(=O)NCC(N)=O)Cc2ccccc2C1 have INHIBITION greater than or equal to 40%?
condition not met

Does the compound CCCc1nc(NCc2c(C)nn(CCC)c2C)c2cnn(C)c2n1 have recorded INHIBITION that is 40% or more?
condition not met

Assess whether reported INHIBITION for Cc1nc(NCCO)cc(C(C)Cn2nc(C)c(C)c2C)n1 (configuration not stated) sits at 40% or higher.
condition not met

Does INHIBITION meet or surpass 40% for CC(Cc1ccco1)NC(=O)Nc1ccc(N2CCCC2)nc1 (configuration not stated) ?
condition not met

Decide: is the reported value of INHIBITION for Cn1ccnc1CN1CCCC(CCCc2ccccn2)(C(N)=O)C1 (configuration not stated) equal to or greater than 40%?
condition not met

* * *

test system: Plasmodium berghei; assay: Screen against P. berghei liver stage (PbLuc), transformed with Luciferase, at 2uM; format: functional, HepG2; settings: tested at 2 uM
Hit rate of the full screen: of about 68,000 compounds, about 2,700 (4%) showed an effect of 50% or more. The sample as a whole holds a higher share of strong results than the screen did.
So I've got a bunch of compounds here, and I need their INHIBITION values.
Numbers only, in %.

// solved cases for INHIBITION follow
>>> df
                                   compound  recorded_metric  reported_measurement
0  COC1COC2(CCN(Cc3ccco3)CC2)C1 (stereo not given)       INHIBITION                 24.91
1  CN1CCN(CC2CC2)C(=O)c2cnc(N3CCC(CO)CC3)nc21       INHIBITION                -13.87
2        Cn1ccnc1CN(CCO)Cc1ccc(C(F)(F)F)cc1       INHIBITION                  9.42
3  Cn1cc(Cl)c(C(=O)N2CCC(N3CCc4ccccc4C3)CC2)n1       INHIBITION                 18.63
4    Nc1nnc(SCC(=O)c2cc3c(cc2Cl)NC(=O)C3)s1       INHIBITION                  9.42
5       O=C(c1ccoc1)N1CCn2cnc(COCC3CC3)c2C1       INHIBITION                 41.79

# map each compound to its INHIBITION
1. CN(CCCOc1ccccc1)Cc1nccn1C
2. COc1cc(C(=O)N2CCCS2(=O)=O)ccc1OC(C)C
3. Cc1nnc(SCC(=O)c2cc3c(cc2Cl)NC(=O)C3)s1

1. -27.01
2. 21.12
3. -21.29
